# Tested on: EKVX
# assayDetails: NCI tumour cell line growth inhibition, 48 h
The source made the active and inactive calls. No stated cut-off is given here; in the data, active = GI50 up to about 1.1 µM and inactive = higher.
Outcome codes: active, inactive

[[record]]
compound = "COC(=O)c1cc(Br)c(C(=O)C(Cl)(Cl)Cl)[nH]1"
testtarget = "EKVX"
group = "inactive"

[[record]]
compound = "Cc1cc(C)c2c(=N)c3ccccc3n(CCCCCCn3c4ccccc4c(=N)c4c(C)cc(C)nc43)c2n1"
testtarget = "EKVX"
group = "inactive"

[[record]]
compound = "O=C(/C=C/c1ccc(O)c(O)c1)OCCc1ccc2ccccc2c1"
testtarget = "EKVX"
group = "inactive"

[[record]]
compound = "OCCCCCNc1cc(O)nc(O)n1"
testtarget = "EKVX"
group = "inactive"

[[record]]
compound = "O=C1C[C@@H](c2ccccc2)NCCCCN(O)CCCN1"
testtarget = "EKVX"
group = "inactive"

[[record]]
compound = "Nc1ncnc2c1ncn2CCCCC(=O)O"
testtarget = "EKVX"
group = "inactive"

[[record]]
compound = "CCNc1cc2c3c(c1)CCN3CCC2"
testtarget = "EKVX"
group = "inactive"

[[record]]
compound = "O=c1n(-c2ccccc2)c(=O)n2n1C1CCC2CC1"
testtarget = "EKVX"
group = "inactive"

[[record]]
compound = "S=C(NCCc1ccccn1)N/N=C/c1ccccn1"
testtarget = "EKVX"
group = "active"

[[record]]
compound = "COc1ccc(/C=C(\\NC(=O)c2ccccc2)C(=O)NN(C)c2ccnc3cc(Cl)ccc23)cc1OC"
testtarget = "EKVX"
group = "inactive"

[[record]]
compound = "O=c1cc(CBr)c2ccc(O)cc2o1"
testtarget = "EKVX"
group = "inactive"

[[record]]
compound = "CC(O)(CCCCCl)c1nc2ccccc2s1 (stereo not drawn)"
testtarget = "EKVX"
group = "inactive"

[[record]]
compound = "COc1ccc2c(c1)CN1CCc3c(cc(OC)c(OC)c3OC)C1C2 (stereo not drawn)"
testtarget = "EKVX"
group = "inactive"

[[record]]
compound = "COC(=O)[C@H]1COC(=S)N1C(=O)[C@@H](C)[C@H](O)C(C)C"
testtarget = "EKVX"
group = "inactive"

[[record]]
compound = "NC(=O)c1csc(C2(O)COC(CO)C2O)n1 (stereo not drawn)"
testtarget = "EKVX"
group = "inactive"

[[record]]
compound = "O=C(OCC(OC(=O)c1ccccc1)C1CC(C2(O)CCCCC2)C(=O)O1)c1ccccc1 (stereo not drawn)"
testtarget = "EKVX"
group = "inactive"

[[record]]
compound = "Cc1cc(/N=C2\\C=C(Nc3cc(C)on3)C(=O)c3ccccc32)no1"
testtarget = "EKVX"
group = "inactive"

[[record]]
compound = "C(=C\\Nc1ccc(-c2ccccc2)cc1)/C=N/c1ccc(-c2ccccc2)cc1"
testtarget = "EKVX"
group = "inactive"

[[record]]
compound = "[O-][S+]1C(=c2ccc(=C3Sc4ccccc4S3)cc2)Sc2ccccc21 (stereo not drawn)"
testtarget = "EKVX"
group = "inactive"

[[record]]
compound = "COc1ccc(C2SCC(=O)N2NC(=O)C(C)Oc2ccc(Cl)cc2Cl)cc1 (stereo not drawn)"
testtarget = "EKVX"
group = "inactive"

[[record]]
compound = "C=CCONC(=O)c1ccc(Cl)cc1"
testtarget = "EKVX"
group = "inactive"

[[record]]
compound = "Nc1ccc(S(=O)(=O)Nc2nc3ccccc3nc2N2CCCCC2)cc1"
testtarget = "EKVX"
group = "inactive"

[[record]]
compound = "Nc1nc2c(ncn2CCOC(c2ccccc2)P(=O)(O)O)c(=O)[nH]1 (stereo not drawn)"
testtarget = "EKVX"
group = "inactive"

[[record]]
compound = "CN(C)CCC(C#N)(c1ccccc1)c1ccccc1"
testtarget = "EKVX"
group = "inactive"

[[record]]
compound = "Cc1c(C(=O)CC(=O)C(=O)Nc2ccc(Cl)cc2)[n+]([O-])c2ccccc2[n+]1[O-]"
testtarget = "EKVX"
group = "inactive"

[[record]]
compound = "COC1(OC)CC(CO)(CNc2nc(N)nc(Cl)c2C=O)C1"
testtarget = "EKVX"
group = "inactive"

[[record]]
compound = "CCCCNC1CCCCC[C@H]1O (stereo partly drawn)"
testtarget = "EKVX"
group = "inactive"

[[record]]
compound = "C=C(C(=O)O[C@H]1C(=O)C2=C(C)CCC3C(=C)C(=O)O[C@@H]3C2[C@]1(C)O)C1CC[C@]2(C)CCCC(=C)[C@H]2C1 (stereo partly drawn)"
testtarget = "EKVX"
group = "inactive"

[[record]]
compound = "O=C(O)c1c(Cl)c(Cl)c(Cl)c(Cl)c1C(=O)Nc1ccc2cn[nH]c2c1"
testtarget = "EKVX"
group = "inactive"

[[record]]
compound = "COc1ccc(OC)c(CCc2cc(OC)c(OC)cc2C)c1"
testtarget = "EKVX"
group = "inactive"

[[record]]
compound = "Cc1cccc(C(C)(C)C)c1NC(=O)CC1C(=O)Nc2ccccc2S1(=O)=O (stereo not drawn)"
testtarget = "EKVX"
group = "inactive"

[[record]]
compound = "CN(C)CCCn1cnc2cc(Cl)c(Cl)cc21"
testtarget = "EKVX"
group = "inactive"

[[record]]
compound = "CN(C)c1ccc(/C=C2\\N=C(c3ccc([N+](=O)[O-])cc3)OC2=O)cc1"
testtarget = "EKVX"
group = "inactive"

